Entry source: paper PMC7601404

- Tested on: PpASL
- Construct: gene ASL; mature form without predicted chloroplast transit peptide (TargetP-2.0, WoLF PSORT); N-terminal 6xHis (pDEST17), tag kept; E. coli; cloned cDNA 1398 nt
- assaySummary: fumarate absorbance at […] nm
- Type: biochemical, Pinus pinaster
- settings: 50 mM Tris-HCl pH 8, 25 °C, argininosuccinate above Km
pIC50: −log10 of the molar value.
recordedMetric: pIC50

P: NCCCNCCCCNCCCN
Q: NCCCCNCCCN
Lab note: check whether P or Q has the lower measured pIC50. In your reply, give the label of the chosen option.
P

* * *

- Tested on: PpOTC
- Construct: gene OTC; mature form without predicted chloroplast transit peptide (TargetP-2.0, WoLF PSORT); N-terminal 6xHis (pDEST17), tag kept; E. coli; cloned cDNA 984 nt
- assaySummary: phosphomolybdate Pi release assay, […] nm
- Assay type: biochemical, Pinus pinaster
- settings: 50 mM Tris-HCl pH 8.0, 25 °C, ornithine + carbamoyl-P above Km; negative allosteric
recordedMetric: IC50 (mM)
Return type: number; implicit unit mM.

Which value of IC50 has been reported for N=C(N)NCCC[C@H](N)C(=O)O [arginine] in the records?
10.3
